assay-name: chemical genetic growth profiling, strain panel (AID 1159580);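 note: tested at 20 µM; growth read once vehicle control cultures reached saturation at 30 °C; 1 = growth at the plate median or of vehicle wells; lower values mean less growth of the strain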
condition-info: S. cerevisiae deletion strains, growth OD, locus YLR320W, strain mms22, stronger effect = lower value
Hit rate of the full screen: of about 5,500 compounds, about 2,000 (36%) were called active. Another 18% or so got no clear call; they are omitted. The list shows a part of the results.
Could you please report measured normalized growth for the items listed next?
Give only the figure.

INPUT: Field request: normalized growth | item: CO/N=C(\C(=O)NC1C(=O)N2C(C(=O)OC(C)OC(C)=O)=C(COC(N)=O)CSC12)c1ccco1 (stereo unspecified)
OUTPUT: 0.986

INPUT: Field request: normalized growth | item: O=c1[nH]oc2c1CCNC2
OUTPUT: 1.01

INPUT: Field request: normalized growth | item: CC(C)[C@@H]1CC[C@@H](C)C[C@H]1O
OUTPUT: 0.991

INPUT: Field request: normalized growth | item: CC(=O)OC1CCC2(C)C(=CC=C3C2CCC2(C)C3CCC2C(C)/C=C/C(C)C(C)C)C1(C)C (stereo unspecified)
OUTPUT: 1.03

INPUT: Field request: normalized growth | item: CC(C)NNC(=O)c1ccncc1
OUTPUT: 1.01

INPUT: Field request: normalized growth | item: COC(=O)C(C)c1ccc(C(=O)c2cccs2)cc1 (stereo unspecified)
OUTPUT: 1.01

INPUT: Field request: normalized growth | item: CC(C)C(C)/C=C/C(C)[C@H]1CCC2C3=CCC4CC(=O)CC[C@]4(C)C3CC[C@@]21C (stereo partly specified)
OUTPUT: 0.965

INPUT: Field request: normalized growth | item: CC(C(=O)O)c1ccc(C(=O)c2cccs2)cc1 (stereo unspecified)
OUTPUT: 1

INPUT: Field request: normalized growth | item: CO[C@@]1(NC(=O)CSCC#N)C(=O)N2C(C(=O)O)=C(CSc3nnnn3C)CSC21 (stereo partly specified)
OUTPUT: 0.953

INPUT: Field request: normalized growth | item: O=S1OCC2C(CO1)C1(Cl)C(Cl)=C(Cl)C2(Cl)C1(Cl)Cl (stereo unspecified)
OUTPUT: 0.961

INPUT: Field request: normalized growth | item: NC(=O)c1cccc(N)c1
OUTPUT: 0.988

====

Could you please report measured normalized growth for the items listed next?
assay-name: chemical genetic growth profiling, strain panel (AID 1159580);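 note: tested at 20 µM; growth read once vehicle control cultures reached saturation at 30 °C; 1 = growth at the plate median or of vehicle wells; lower values mean less growth of the strain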
condition-info: S. cerevisiae deletion strains, growth OD, locus YDL132W, strain cdc53, stronger effect = lower value
About 2,000 (36%) of roughly 5,500 compounds were called active. Not shown: some 18% with an inconclusive outcome. This is one part of the list.
Give only the figure.

INPUT: Field request: normalized growth | item: Cc1c(C(=O)N(Cc2ccccc2)Cc2cccs2)cnn1-c1ccc(Cl)cc1
OUTPUT: 0.976

INPUT: Field request: normalized growth | item: CCc1ccn2cc(Nc3ccccc3Cl)nc2c1
OUTPUT: 0.985

INPUT: Field request: normalized growth | item: O=C(NNc1ccc(I)cc1)c1cc(Cl)cc(Cl)c1
OUTPUT: 0.95

INPUT: Field request: normalized growth | item: Cc1onc(-c2c(F)cccc2Cl)c1C(=O)ON=C1C2CC3CC(C2)CC1C3
OUTPUT: 1.06

INPUT: Field request: normalized growth | item: CC(=O)ON=C1c2cc([N+](=O)[O-])ccc2-c2ccc([N+](=O)[O-])cc21
OUTPUT: 0.971

INPUT: Field request: normalized growth | item: CC(C)(C)c1ccc(C(=O)NNc2c(Cl)cccc2Cl)cc1
OUTPUT: 0.968

INPUT: Field request: normalized growth | item: S=c1[nH]nc(Nc2ccc(I)cc2)s1
OUTPUT: 0.904

INPUT: Field request: normalized growth | item: Cc1c(C(=S)Nc2ccccc2)sc2ccccc12
OUTPUT: 0.967

INPUT: Field request: normalized growth | item: Cc1c(-c2ccnn2C(=O)c2ccco2)cnn1-c1ccccc1
OUTPUT: 0.953

INPUT: Field request: normalized growth | item: CC1(C)OC(=O)C(=Cc2cccn2-c2ccc(OC(F)(F)F)cc2)C(=O)O1
OUTPUT: 0.99

INPUT: Field request: normalized growth | item: O=C(Nc1ccc(OC(F)(F)F)cc1)OC1CN(C(c2ccccc2)c2ccccc2)C1
OUTPUT: 1
